Data credit: patent US9510598B2

Attribute: log P
format: physicochemical; conditions: method [a]: HPLC/LC-MS on reversed phase at pH 2.7, 0.1% formic acid in water / acetonitrile, linear gradient 10% to 95% acetonitrile
Measured Endpoint: log P

- Compound: "Cn1ccc(NC(=O)C2(C(F)(F)F)CC(c3ccc4ncc(Br)cc4c3)=NO2)c1 (centres unmarked)"
  Result: "3.5^[a]"
- Compound: "CC(C)NC(=O)C1(C)CC(c2ccc3ncc(C#N)cc3c2)=NO1 (centres unmarked)"
  Result: "2.12^[a]"
- Compound: "CC1(C(=O)NCc2ccc3c(c2)OCCO3)CC(c2ccc3ncc(Br)cc3c2)=NO1 (centres unmarked)"
  Result: "3.04^[a]"
- Compound: "C#Cc1cnc2ccc(C3=NOC(C)(C(=O)NCc4ccc5[nH]ccc5c4)C3)cc2c1 (centres unmarked)"
  Result: "2.63^[a]"
- Compound: "C#Cc1cnc2ccc(C3=NOC(C)(C(=O)NCc4cnn(Cc5ccccc5)c4)C3)cc2c1 (centres unmarked)"
  Result: "2.64^[a]"
- Compound: "C#Cc1cnc2ccc(C3=NOC(C)(C(=O)NC4CC(C)(C)N(C)C(C)(C)C4)C3)cc2c1 (centres unmarked)"
  Result: "1.34^[a]"
- Compound: "CC1(C(=O)NCC2CCCOC2c2ccccc2)CC(c2ccc3ncc(Br)cc3c2)=NO1 (centres unmarked)"
  Result: "3.5^[a]"
- Compound: "CC1(C(=O)NCC2CCCO2)CC(c2ccc3ncc(Br)cc3c2)=NO1 (centres unmarked)"
  Result: "2.45^[a]"
- Compound: "Cc1cc2cc(CNC(=O)C3(C)CC(c4ccc5ncc(Br)cc5c4)=NO3)ccc2[nH]1 (centres unmarked)"
  Result: "3.17^[a]"
- Compound: "C#Cc1cnc2ccc(C3=NOC(C)(C(=O)NCc4ccccc4Oc4ccccc4)C3)cc2c1 (centres unmarked)"
  Result: "3.89^[a]"
- Compound: "C#Cc1cnc2ccc(C3=NOC(C)(C(=O)NCCc4ccc(OC(F)(F)F)cc4)C3)cc2c1 (centres unmarked)"
  Result: "3.55^[a]"
- Compound: "C#Cc1cnc2ccc(C3=NOC(C)(C(=O)NCC4COC(C)(C)O4)C3)cc2c1 (centres unmarked)"
  Result: "2.35^[a]"
- Compound: "CC1(C(=O)NCc2ccccc2Oc2ccccc2)CC(c2ccc3ncc(Br)cc3c2)=NO1 (centres unmarked)"
  Result: "4.32^[a]"
- Compound: "C#Cc1cnc2ccc(C3=NOC(C)(C(=O)NC4CC4C4CC4)C3)cc2c1 (centres unmarked)"
  Result: "2.92^[a]"
- Compound: "CC1(C)OCC(CNC(=O)C2(C)CC(c3ccc4ncc(Br)cc4c3)=NO2)O1 (centres unmarked)"
  Result: "2.64^[a]"
- Compound: "C#Cc1cnc2ccc(C3=NOC(C)(C(=O)NCc4ccc5[nH]c(C)cc5c4)C3)cc2c1 (centres unmarked)"
  Result: "2.84^[a]"
- Compound: "CCCn1cc(CNC(=O)C2(C)CC(c3ccc4ncc(Br)cc4c3)=NO2)c(C)n1 (centres unmarked)"
  Result: "2.64^[a]"
